Can you tell me shrunken log2 fold change for the items I'm about to list?
Test system: Escherichia coli TOP10;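 further: peptides expressed intracellularly from a pBAD plasmid library in pooled LB shake-flask culture, induced with 0.3% L-arabinose, DNA abundance read by NGS, three biological replicates, DESeq2 with apeglm shrinkage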
Run Description: shrunken log2 fold change of peptide-encoding DNA abundance (4.5 h post-induction vs induction); higher = less antimicrobial activity (less host growth inhibition)
Assay Conditions: time post-induction: 4.5 h; library: site-saturation at positions 5, 18, 19, 20
One number for each entry.

RRIRRRPPRLPRPRPRPYFYPRP -0.683

Hi! Can you tell me shrunken log2 fold change for each of these sequences?
1. RRIRIRPPRLPRPRPRPVAPPRP
2. RRIRYRPPRLPRPRPRPHWDPRP
3. RRIRWRPPRLPRPRPRPIMLPRP
4. RRIRSRPPRLPRPRPRPVVCPRP

Out:
1. 0.244
2. -0.92
3. 0.464
4. -0.0186

// data source = the supplement of paper PMC9112550
